Source: patent US20260274955A1

Would you mind telling me the reported Anti-CD28 Fab (SEQ ID NOs: 202, 203) signal of each entry?
Target: T1, Anti-CD28 Fab (SEQ ID NOs: 202, 203)
T1 construct: biotinylated and captured on neutravidin coated plates in the phage ELISA
T1 sequence (VH, as listed by the source, chain 1 of 2): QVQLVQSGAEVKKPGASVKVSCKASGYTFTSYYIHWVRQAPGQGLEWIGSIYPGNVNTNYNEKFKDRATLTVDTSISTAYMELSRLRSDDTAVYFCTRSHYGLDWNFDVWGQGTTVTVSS
T1 sequence (VL, as listed by the source, chain 2 of 2): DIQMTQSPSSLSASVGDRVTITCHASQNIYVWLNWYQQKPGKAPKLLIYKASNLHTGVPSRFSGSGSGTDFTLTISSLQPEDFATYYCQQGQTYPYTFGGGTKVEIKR
Assay: phage binding ELISA, Fab on plate;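 also: clonal phage supernatant ELISA, wells preincubated with CD28 antigen or blocking buffer only, then bound phage detected using HRP-linked anti-M13 antibody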
One number for each entry.

As a guide, the following entries are already answered.
INSERT INTO results (binder, numeric_readout) VALUES
  ('LCNAGAMYKWPTCL [Phage-987]', 1.94),
  ('LCAAGFNYPWPLCL [Phage-1083]', 1.57),
  ('TCAAGAGWQWPMCF [Phage-1067]', 1.6);

In plain terms, TCAAGASYQWPLCF [Phage-1015] has a documented Anti-CD28 Fab (SEQ ID NOs: 202, 203) signal of 1.79
